System: human TrkA (Homo sapiens (Human), UniProt P04629)
Sequence (P04629 440-796): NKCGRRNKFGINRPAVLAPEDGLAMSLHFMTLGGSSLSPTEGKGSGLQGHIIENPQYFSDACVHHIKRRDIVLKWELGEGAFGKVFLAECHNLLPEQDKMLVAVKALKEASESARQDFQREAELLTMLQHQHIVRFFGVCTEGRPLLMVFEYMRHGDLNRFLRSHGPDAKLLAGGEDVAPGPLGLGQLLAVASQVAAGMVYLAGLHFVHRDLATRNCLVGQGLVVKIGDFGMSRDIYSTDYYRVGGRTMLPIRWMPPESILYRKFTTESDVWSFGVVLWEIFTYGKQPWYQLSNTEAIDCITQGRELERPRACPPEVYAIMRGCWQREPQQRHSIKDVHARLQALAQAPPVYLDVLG
Assay: Human TrkA inhibition assay (Test Example 2)
Assay type: biochemical
Experimental Setup: Table 155, human TrkA inhibition; read-out: IC50
pIC50: −log10 of the molar value.
Consider the following molecules; for each one, report its pIC50.

Task: # lookup: pIC50 of COCCN1C[C@@H](NC(=O)Nc2c(C)c(-c3cnc(OCCN(C)C)nc3)nn2-c2ccccc2)[C@H](c2ccnc(F)c2)O1 (racemic)
Output: > 7.00

Task: # lookup: pIC50 of COCCN1C[C@@H](NC(=O)Nc2c(C)c(-c3cnc(N4CCN(CC#N)CC4)nc3)nn2-c2ccccc2)[C@H](c2cc(F)nc(F)c2)O1 (racemic)
Output: > 7.00

Task: # lookup: pIC50 of COCCN1C[C@@H](NC(=O)Nc2c(C)c(-c3cnc4c(c3)OCCO4)nn2-c2ccccc2)[C@H](c2ccnc(F)c2)O1 (racemic)
Output: > 7.00

====

System: human TrkA (Homo sapiens (Human))
Assay: Human TrkA inhibition assay (Test Example 2)
Format: biochemical
Experimental Setup: Table 155, human TrkA inhibition; read-out: IC50
pIC50: −log10 of the molar value.
Assay Metric: pIC50

Task: # lookup: pIC50 of COCCN1C[C@@H](NC(=O)Nc2c(C)c(-c3ccn4ccnc4c3)nn2-c2ccccc2)[C@H](c2ccc(F)c(F)c2)O1
Output: > 7.00

Task: # lookup: pIC50 of CNC(=O)c1cc(-c2nn(-c3ccccc3)c(NC(=O)N[C@@H]3CN(C)O[C@H]3c3ccc(F)c(F)c3)c2C)cnc1OC (racemic)
Output: > 7.00

Task: # lookup: pIC50 of COCCN1C[C@@H](NC(=O)Nc2c(C)c(-c3cnc4c(c3)OCC(=O)N4)nn2-c2ccccc2)[C@H](c2cnc(F)c(F)c2)O1 (racemic)
Output: > 7.00

====

System: human TrkA (Homo sapiens (Human))
Assay: Human TrkA inhibition assay (Test Example 2)
Type: biochemical
Experimental Setup: Table 153, human TrkA inhibition; read-out: IC50
Assay Metric: IC50

Task: # lookup: IC50 of COCCN1C[C@@H](NC(=O)Nc2c(C)c(C3=CCNCC3)nn2-c2ccccc2)[C@H](c2cnc(F)c(F)c2)O1 (racemic)
Output: < 100 nM

Task: # lookup: IC50 of COCCN1C[C@@H](NC(=O)Nc2c(C)c(-c3cnc4c(cnn4C)c3)nn2-c2ccc(F)c(F)c2)[C@H](c2ccc(F)c(F)c2)O1 (racemic)
Output: < 100 nM

Task: # lookup: IC50 of COCCN1C[C@@H](NC(=O)Nc2c(C)c(-c3cnc4cnn(C)c4c3)nn2-c2ccccc2)[C@H](c2ccnc(F)c2)O1 (racemic)
Output: < 100 nM

Task: # lookup: IC50 of COCCN1C[C@@H](NC(=O)Nc2c(C)c(-c3cnc(OC)c(C(=O)NC4CCOCC4)c3)nn2-c2ccccc2)[C@H](c2ccnc(F)c2)O1 (racemic)
Output: < 100 nM

Task: # lookup: IC50 of CNC(=O)c1cc(-c2nn(-c3ccccc3)c(NC(=O)N[C@@H]3CN(Cc4ccc(C#N)o4)O[C@H]3c3ccc(F)c(F)c3)c2C)cn(C)c1=O (racemic)
Output: < 100 nM

Task: # lookup: IC50 of CCNC(=O)c1ncc(-c2nn(-c3ccccc3)c(NC(=O)N[C@@H]3CN(CCOC)O[C@H]3c3ccnc(F)c3)c2C)cc1C (racemic)
Output: < 100 nM

====

System: human TrkA (Homo sapiens (Human), UniProt P04629)
Assay: Human TrkA inhibition assay (Test Example 2)
Format: biochemical
Experimental Setup: Table 154, human TrkA inhibition; read-out: IC50
Assay Metric: IC50

Task: # lookup: IC50 of COCCN1C[C@@H](NC(=O)Nc2c(C)c(-c3ccc(C(=O)OC)nc3)nn2-c2ccccc2)[C@H](c2ccc(F)c(F)c2)O1 (racemic)
Output: < 100 nM

Task: # lookup: IC50 of CNS(=O)(=O)c1cc(-c2nn(-c3ccccc3)c(NC(=O)N[C@@H]3CN(CCOC)O[C@H]3c3ccnc(F)c3)c2C)cn(C)c1=O (racemic)
Output: < 100 nM

Task: # lookup: IC50 of CNC(=O)c1ncc(-c2nn(-c3ccccc3)c(NC(=O)N[C@@H]3CN(CCOC)O[C@H]3c3ccnc(F)c3)c2C)cc1F (racemic)
Output: < 100 nM

====

System: human TrkA (Homo sapiens (Human))
Assay: Human TrkA inhibition assay (Test Example 2)
Assay type: biochemical
Experimental Setup: Table 153, human TrkA inhibition; read-out: IC50
pIC50: −log10 of the molar value.
Assay Metric: pIC50

Task: # lookup: pIC50 of CNC(=O)c1cc(-c2nn(-c3ccccc3)c(NC(=O)N[C@@H]3CN(CCOC)O[C@H]3c3ccc(F)c(F)c3)c2C)cn(C)c1=O (racemic) [Compound I-147]
Output: > 7.00

Task: # lookup: pIC50 of COCCN1C[C@@H](NC(=O)Nc2c(C)c(C3=CCN(C(=O)CO)CC3)nn2-c2ccccc2)[C@H](c2ccc(F)c(F)c2)O1 (racemic) [Compound I-53]
Output: > 7.00

Task: # lookup: pIC50 of COCCN1C[C@@H](NC(=O)Nc2c(C)c(-c3cnc(C(=O)NC4CC4)c(C)c3)nn2-c2ccccc2)[C@H](c2ccnc(F)c2)O1 (racemic) [Compound I-169]
Output: > 7.00

====

System: human TrkA (Homo sapiens (Human), UniProt P04629)
Assay: Human TrkA inhibition assay (Test Example 2)
Assay type: biochemical
Experimental Setup: Table 157, human TrkA inhibition; read-out: IC50
Consider the following compounds; for each one, report its IC50.

Task: # lookup: IC50 of CCN1C[C@@H](NC(=O)Nc2c(C)c(OCCC3CCN(C(=O)OC(C)(C)C)C3)nn2-c2ccccc2)[C@H](c2ccc(F)c(F)c2)O1 (stereo partly drawn) [Compound I-597]
Output: < 0.1 µM

Task: # lookup: IC50 of Cc1c(-c2ccncc2)nn(-c2ccccc2)c1NC(=O)N[C@@H]1CN(CC(F)F)O[C@H]1c1ccc(F)c(F)c1 (racemic) [Compound I-630]
Output: < 0.1 µM

Task: # lookup: IC50 of CCN1C[C@@H](NC(=O)Nc2c(C)c(OCCCCN(C)C)nn2-c2ccccc2)[C@H](c2ccc(F)c(F)c2)O1 (racemic) [Compound I-662]
Output: < 0.1 µM

====

System: human TrkA (Homo sapiens (Human), UniProt P04629)
Assay: Human TrkA inhibition assay (Test Example 2)
Format: biochemical
Experimental Setup: Table 155, human TrkA inhibition; read-out: IC50
Assay Metric: IC50

Task: # lookup: IC50 of COCCN1C[C@H](NC(=O)Nc2c(C)c(-c3cnc(C)nc3)nn2-c2ccccc2)[C@@H](c2cc(F)nc(F)c2)O1
Output: > 1 µM

Task: # lookup: IC50 of COCCN1C[C@@H](NC(=O)Nc2c(C)c(-c3ccc(OC)nc3)nn2-c2ccccc2)[C@H](c2ccnc(F)c2)O1 (racemic)
Output: < 0.1 µM

Task: # lookup: IC50 of COCCN1C[C@@H](NC(=O)Nc2c(C)c(C(=O)NCC(C)(C)O)nn2-c2ccccc2)[C@H](c2ccnc(F)c2)O1 (racemic)
Output: < 0.1 µM

Task: # lookup: IC50 of COCCN1C[C@@H](NC(=O)Nc2c(C)c(-c3cnc4c(cnn4C)n3)nn2-c2ccccc2)[C@H](c2ccnc(F)c2)O1 (racemic)
Output: < 0.1 µM

Task: # lookup: IC50 of COCCN1C[C@@H](NC(=O)Nc2c(C)c(-c3cnc(N4CCNOCC4)nc3)nn2-c2ccccc2)[C@H](c2ccnc(F)c2)O1 (racemic)
Output: < 0.1 µM

Task: # lookup: IC50 of COCCN1C[C@@H](NC(=O)Nc2c(C)c(-c3cnc(N4CCN(C)CC4)nc3)nn2-c2ccccc2)[C@H](c2cc(F)nc(F)c2)O1 (racemic)
Output: < 0.1 µM

====

System: human TrkA (Homo sapiens (Human), UniProt P04629)
Assay: Human TrkA inhibition assay (Test Example 2)
Assay type: biochemical
Experimental Setup: Table 154, human TrkA inhibition; read-out: IC50
Description: Seven point five μL per well of human TrkA (PV3144, Lifetechnologies, final concentration: 1 nmol/L) suspended in the assay buffer (100 mmol/L 4-(2-hydroxyethyl)-1-piperazineethanesulfonic acid (HEPES), 10 mmol/L magnecium chloride, 0.003 vol % Brij-35, 0.004 vol % Tween20 and 1 mmol/L dithiothreitol (DTT)) was applied in a 384 well plate and the plate was pre-incubated for 15 min at room temperature with 0.4 μL of each compound (final concentration: 200 μmol/L-1 pmol/L) dissolved in DMSO. […]
Assay Metric: IC50

Task: # lookup: IC50 of COCCN1C[C@@H](NC(=O)Nc2c(C)c(-c3cc(-c4cn(Cc5ccc(OC)cc5)nn4)c(=O)n(C)c3)nn2-c2ccccc2)[C@H](c2ccc(F)c(F)c2)O1
Output: < 100 nM

Task: # lookup: IC50 of Cc1c(-c2cnc3c(cnn3C)c2)nn(-c2ccccc2)c1NC(=O)N[C@@H]1CN(Cc2cn[nH]c2)O[C@H]1c1ccc(F)c(F)c1 (racemic)
Output: 100 to 1000 nM

Task: # lookup: IC50 of COCCN1C[C@@H](NC(=O)Nc2c(C)c(-c3cnc(OC)nc3)nn2-c2ccccc2)[C@H](c2ccc(F)cc2)O1 (racemic)
Output: < 100 nM

Task: # lookup: IC50 of COCCN1C[C@@H](NC(=O)Nc2c(C)c(-c3cnc4nn(CC(F)(F)F)cc4c3)nn2-c2ccccc2)[C@H](c2ccnc(F)c2)O1 (racemic)
Output: < 100 nM

Task: # lookup: IC50 of COCCN1C[C@@H](NC(=O)Nc2c(C)c(-c3ccnc(C(=O)NO)c3)nn2-c2ccccc2)[C@H](c2ccnc(F)c2)O1 (racemic)
Output: < 100 nM

Task: # lookup: IC50 of COCCN1C[C@@H](NC(=O)Nc2c(C)c(-c3ccc(C(=O)NOC)nc3)nn2-c2ccccc2)[C@H](c2ccc(F)c(F)c2)O1 (racemic)
Output: < 100 nM
